System: UO-31 renal
EXPERIMENT_DESCRIPTION: NCI-60 one-dose screen, 48 h (100 = growth as untreated, 0 = no growth, -100 = all killed)
CONDITION_CONTEXT: 10 µM unless noted
The panel holds about 83,000 compounds, 20% with a hit somewhere; the sample as a whole holds those more often.
Would you mind telling me the reported growth of each entry?
A number alone suffices; assume %.

Q: What growth appears in the records for this compound with UO-31 renal? ClC1C2CC(c3ccccc32)C1Cl (stereo unspecified)
Ans: 108

Q: What growth appears in the records for this compound with UO-31 renal? CCOc1nc(-c2ccccc2)cc2c(O)c(-c3nnco3)[nH]c(=O)c12
Ans: 29.1

Q: What growth appears in the records for this compound with UO-31 renal? COc1ccc(C(=O)COc2cccc(/C=C3\Oc4ccc5ccccc5c4C3=O)c2)cc1
Ans: -54.4

Q: What growth appears in the records for this compound with UO-31 renal? CCCCCCCC/C=C/CCCCCCCC1=NC(C)(C)CN1CCO
Ans: -44.8

Q: What growth appears in the records for this compound with UO-31 renal? Cc1nn(-c2ccc(Cl)cc2)c2nc3c(nc12)c(=O)oc1ccccc13
Ans: 101

Q: What growth appears in the records for this compound with UO-31 renal? C=C(C)[C@H]1CC/C(C)=C/CC[C@]2(C)O[C@H]2CC/C(C=O)=C\C1O (stereo partly specified)
Ans: 58.1

Q: What growth appears in the records for this compound with UO-31 renal? CCOc1cc(-c2ccc[nH]2)[nH]c1/C=C1\N=C(C)C(C(=O)OC)=C1C
Ans: -79.9

Q: What growth appears in the records for this compound with UO-31 renal? COc1ccc2[nH]c(-c3ccccc3)cc2c1
Ans: 75.1

Q: What growth appears in the records for this compound with UO-31 renal? CN(C)c1ccc(/C=C\c2ccnc3ccccc23)cc1
Ans: 34.6

Q: What growth appears in the records for this compound with UO-31 renal? COc1ccc(-c2c3c(nn2-c2ccc(N)cc2)CCc2cnoc2-3)cc1OC
Ans: 62.1

Q: What growth appears in the records for this compound with UO-31 renal? CCCCCCCC/C=C/CCCCCCCC1=NC(C)(C)CN1CC(C)O (stereo unspecified)
Ans: -73.9

Q: What growth appears in the records for this compound with UO-31 renal? CCC(=O)Nc1ccccc1C#C/C=C\C#Cc1ccccc1C(F)(F)F
Ans: 22.4

Q: What growth appears in the records for this compound with UO-31 renal? Cn1cc(-c2csc(-c3cn(C)c4ncccc34)n2)c2cc(Br)cnc21
Ans: 100

Q: What growth appears in the records for this compound with UO-31 renal? OC(Cc1cccnc1)c1ccccc1 (stereo unspecified)
Ans: 93.3

Q: What growth appears in the records for this compound with UO-31 renal? COc1cccc2c1C(=O)c1c(O)c3c(c(O)c1C2=O)C[C@@](O)(/C(C)=N/NC(=O)c1cccc([N+](=O)[O-])c1)C[C@@H]3OC1CC(N)C(O)C(C)O1 (stereo partly specified)
Ans: -17

Q: What growth appears in the records for this compound with UO-31 renal? O=C(/C=C/c1cc2ccccc2[nH]c1=O)c1ccc(Cl)cc1
Ans: 29.8

Q: What growth appears in the records for this compound with UO-31 renal? CCC1=C(c2ccc(OC)cc2)C(C)Oc2cc(OC(C)=O)ccc21 (stereo unspecified)
Ans: 88.6

Q: What growth appears in the records for this compound with UO-31 renal? O=c1cc(-c2cccnc2)oc2c1ccc1ccccc12
Ans: 60.5

Q: What growth appears in the records for this compound with UO-31 renal? C=C(C[C@](O)(C(=O)/C=C/c1ccc(Cl)cc1)C(=O)OC)c1ccccc1
Ans: 52.6

Q: What growth appears in the records for this compound with UO-31 renal? O=C(C(=O)N1CCOCC1)c1ccc(OC2OC(CO)C(O)C(O)C2O)cc1 (stereo unspecified)
Ans: 102

Q: What growth appears in the records for this compound with UO-31 renal? Nc1cc(Cl)c(S(N)(=O)=O)cc1S(N)(=O)=O
Ans: 102

----------
Test system: HCT-15 colon
EXPERIMENT_DESCRIPTION: NCI-60 one-dose screen, 48 h (100 = growth as untreated, 0 = no growth, -100 = all killed)
CONDITION_CONTEXT: 10 µM unless noted
About 83,000 compounds went through this panel and 20% of them were active in at least one assay; those are over-represented in the sample as a whole.
Mark False for growth values under 90%, and True for everything at or above.

Q: Identify whether the reported growth of the following compound is 90% or greater: COc1cc2cn3c4ccc(O)cc4nc(N)c3c2cc1OC
Ans: False

Q: Identify whether the reported growth of the following compound is 90% or greater: CC(C)(C)c1cc(O)c(O)c(C(C)(C)C)c1
Ans: False

Q: Identify whether the reported growth of the following compound is 90% or greater: CCC[C@H](N[C@@H](C)C(=O)N1[C@H](C(=O)O)C[C@@H]2CCCC[C@@H]21)C(=O)OCC
Ans: True

Q: Identify whether the reported growth of the following compound is 90% or greater: CC(C)[C@]12O[C@H]1[C@@H]1O[C@]13[C@]1(O[C@H]1C[C@H]1C4=C(CC[C@@]13C)C(=O)OC4)[C@@H]2OC(=O)CN(C)C
Ans: False

Q: Identify whether the reported growth of the following compound is 90% or greater: Cc1cc2c(C#N)n3c(c2cc1C)C(=O)C(c1ccccc1)Oc1ccccc1-3 (centres undefined)
Ans: False

Q: Identify whether the reported growth of the following compound is 90% or greater: CC(C)c1ccc(C(=O)Nc2sc3c(CN(C)C)c(O)ccc3c2C(N)=O)cc1
Ans: False

Q: Identify whether the reported growth of the following compound is 90% or greater: N#Cc1c(N)[nH]c(S)c1C#N
Ans: True

Q: Identify whether the reported growth of the following compound is 90% or greater: CC/C=C\C=C/C(=O)N/C=C/CC1Cc2cccc(O)c2C(=O)O1 (centres undefined)
Ans: False

Q: Identify whether the reported growth of the following compound is 90% or greater: O=C(C(Br)Br)C(Br)C(Br)c1ccccc1 (centres undefined)
Ans: False

Q: Identify whether the reported growth of the following compound is 90% or greater: COc1cccc(/C=C2\COc3ccc(O)c(O)c3C2=O)c1OC
Ans: False

Q: Identify whether the reported growth of the following compound is 90% or greater: CSc1ncc2ncn(C3OC(CO)C(O)C3O)c2n1 (centres undefined)
Ans: True

Q: Identify whether the reported growth of the following compound is 90% or greater: C=C(C[C@@](O)(C(=O)Oc1ccccc1)C(=O)C1CCCCC1)c1ccccc1
Ans: True

Q: Identify whether the reported growth of the following compound is 90% or greater: CCn1c2c(c3ccccc31)SC1c3cccn3CCN1C2=S (centres undefined)
Ans: False

Q: Identify whether the reported growth of the following compound is 90% or greater: COc1ccc(-c2noc(N)c2-c2cc(OC)c3c(c2)OCO3)cc1
Ans: False

Q: Identify whether the reported growth of the following compound is 90% or greater: O=C(c1nn(-c2ccc(Cl)cc2)cc1O)n1nc(C(F)(F)F)cc1-c1ccccc1
Ans: False

Q: Identify whether the reported growth of the following compound is 90% or greater: O=C(Nc1ccccc1Cl)c1cnc2ccc(C3CCNCC3)cn12
Ans: False

Q: Identify whether the reported growth of the following compound is 90% or greater: CCCCc1nc(Cl)c(CO)n1Cc1ccc(-c2ccccc2-c2nn[nH]n2)cc1
Ans: True

Q: Identify whether the reported growth of the following compound is 90% or greater: O=[N+]([O-])c1cnc(Sc2ccncn2)c([N+](=O)[O-])c1
Ans: False

Q: Identify whether the reported growth of the following compound is 90% or greater: COc1ccc(/C=C/C(=O)Nc2cccnc2Nc2ccc(F)cc2)cc1
Ans: True

Q: Identify whether the reported growth of the following compound is 90% or greater: O=C(Nc1cccc2ccccc12)c1cc2c(cc1Br)OCO2
Ans: True

Q: Identify whether the reported growth of the following compound is 90% or greater: COC(=O)[C@]1(CCSC)N[C@H](c2cn(-c3ccccc3)nc2C)[C@@H]2C(=O)N(c3ccccc3)C(=O)[C@@H]21
Ans: True

Q: Identify whether the reported growth of the following compound is 90% or greater: N#CCCCCCn1c2ccccc2c2c3c(c4c5ccccc5[nH]c4c21)C(=O)N(O)C3=O
Ans: False

Q: Identify whether the reported growth of the following compound is 90% or greater: CSC1=Nc2c(c(C)c(-c3ccccc3)n2CCCN2CCCCC2)C2=NC(=O)C[C@H](C)N12
Ans: False

Q: Identify whether the reported growth of the following compound is 90% or greater: Cc1nc2cc(NC(=O)CN3CCN(CCN4C(=O)c5cccc6cccc(c56)C4=O)CC3)ccc2s1
Ans: False

Q: Identify whether the reported growth of the following compound is 90% or greater: COC(=O)c1ccc2c(c1)nc(-c1ccc(O)c(OC)c1)n2-c1cc(C(C)(C)C)[nH]n1
Ans: True

Q: Identify whether the reported growth of the following compound is 90% or greater: ClC1=C(Cl)C(Cl)=C(Cl)C1=Cc1ccc(Cl)cc1
Ans: False

Q: Identify whether the reported growth of the following compound is 90% or greater: c1cncc(CNc2ccccc2-c2nnc(Nc3ccc4c(c3)OCO4)o2)c1
Ans: False

Q: Identify whether the reported growth of the following compound is 90% or greater: CC(c1cc(Cl)ccc1O)c1cc(Cl)ccc1O
Ans: False

Q: Identify whether the reported growth of the following compound is 90% or greater: C[n+]1ccc(Nc2ccc(NC(=O)c3ccc(Nc4cc[n+](C)c5ccc(N)cc45)cc3)cc2)cc1
Ans: True

Q: Identify whether the reported growth of the following compound is 90% or greater: CC(=O)Oc1ccc(C2OC(c3ccc4ccccc4c3OC(C)=O)=NN2C(C)=O)c(OC(C)=O)c1 (centres undefined)
Ans: False

Q: Identify whether the reported growth of the following compound is 90% or greater: Cc1cc(CC(=O)O)n(C)c1C(=O)c1ccc(Cl)cc1
Ans: True

Q: Identify whether the reported growth of the following compound is 90% or greater: Cc1cc(C)n2nc(SCC(=O)Nc3sc4c(c3C(N)=O)CCC4)nc2n1
Ans: True
